EXPERIMENT_NOTES: MTT cell viability (cytotoxicity) assay, PANC-1
Type: cell-based
RECORDED_CONDITIONS: human, PANC-1 cells, 500 μM, mean of 6 wells
MEASURED_ENDPOINT: viability at 24 h, 500 µM (%)
Number in %, nothing else.

Incoming: Read the entry CC1=C(/C=C/C(C)=C/C=C/C(C)=C\C(=O)OC2=C(O)[C@@H]([C@@H](O)CO)OC2=O)C(C)(C)CCC1 [Formula A1] and write its reported viability at 24 h, 500 µM.
Outgoing: 22
